Let's look at some molecules and their measured log10(MIC).
Tested on: Staphylococcus epidermidis EPI1
Measurement Protocol: MIC, standard agar-dilution assay, Staphylococcus epidermidis EPI1
Assay type: cell-based
Test Conditions: Staphylococcus epidermidis, EPI1
Result Type: log10(MIC) (log10 of the value in µg/mL)

| Molecule | Result |
| --- | --- |
| CCC1OC(=O)CC(O)C(C)C(OC2OC(C)C(OC3CC(C)(O)C(O)C(C)O3)C(N(C)C)C2O)C(C)CC(C)C(=O)C=CC(C)=CC1COC1OC(C)C(O)C(O)C1OC (centres unmarked) [Compound 54, 20-Deformylmacrocin] | 0.30 |
| CCC1OC(=O)CC(O)C(C)C(OC2OC(C)C(O)C(N(C)C)C2O)C(CCOc2ccc(OC)cc2)CC(C)C(=O)C=CC(C)=CC1COC1OC(C)C(O)C(OC)C1OC (centres unmarked) [Compound 35, 20-DH-20-O-(p-Methoxyphenyl)desmycosin] | -0.60 |
| CCC1OC(=O)CC(O)C(C)C(OC2OC(C)C(O)C(N(C)C)C2O)C(CCOc2cccc(N(C)C)c2)CC(C)C(=O)C=CC(C)=CC1COC1OC(C)C(O)C(OC)C1OC (centres unmarked) [Compound 39] | -0.30 |
| CCC1OC(=O)CC(O)C(C)C(OC2OC(C)C(OC3CC(C)(O)C(O)C(C)O3)C(N(C)C)C2O)C(CCOC(C(F)(F)F)C(F)(F)F)CC(C)C(=O)C=CC(C)=CC1COC1OC(C)C(O)C(OC)C1OC (centres unmarked) [Compound 19] | 0.60 |
| CCC1OC(=O)CC(O)C(C)C(OC2OC(C)C(O)C(N(C)C)C2O)C(CCOC)CC(C)C(=O)C=CC(C)=CC1COC1OC(C)C(O)C(OC)C1OC (centres unmarked) [Compound 30, 20-DH-20-O-Methyldesmycosin] | -0.30 |
| CCC1CC(C)C(=O)C=CC(C)=CC(COC2OC(C)C(O)C(O)C2OC)C(CC)OC(=O)CC(O)C(C)C1OC1OC(C)C(O)C(N(C)C)C1O (centres unmarked) [Compound 60, 20-DH-DO-Lactenocin] | -0.60 |
| CCC1OC(=O)CC(O)C(C)C(OC2OC(C)C(O)C(N(C)C)C2O)C(CCI)CC(C)C(=O)C=CC(C)=CC1COC1OC(C)C(O)C(O)C1OC (centres unmarked) [Compound 57, 20-DH-DO-20-Iodolactenocin] | -0.30 |
| CCC1OC(=O)CC(O)C(C)C(OC2OC(C)C(O)C(N(C)C)C2O)C(CC2OCCO2)CC(C)C(=O)C=CC(C)=CC1COC1OC(C)C(O)C(OC)C1OC (centres unmarked) [Compound 74] | -0.30 |
| CCC1OC(=O)CC(O)C(C)C(OC2OC(C)C(OC3CC(C)(O)C(O)C(C)O3)C(N(C)C)C2O)C(CCCl)CC(C)C(=O)C=CC(C)=CC1COC1OC(C)C(O)C(OC)C1OC (centres unmarked) [Compound 7, 20-DH-DO-20-Chlorotylosin] | 0.00 |
| CCOC(=O)c1ccc(OCCC2CC(C)C(=O)C=CC(C)=CC(COC3OC(C)C(O)C(OC)C3OC)C(CC)OC(=O)CC(O)C(C)C2OC2OC(C)C(O)C(N(C)C)C2O)cc1 (centres unmarked) [Compound 38] | -0.30 |
| CCC1OC(=O)CC(O)C(C)C(OC2OC(C)C(OC3CC(C)(O)C(O)C(C)O3)C(N(C)C)C2O)C(CCF)CC(C)C(=O)C=CC(C)=CC1COC1OC(C)C(O)C(OC)C1OC (centres unmarked) [Compound 8, 20-DH-DO-20-Fluoro-tylosin] | 0.00 |
| CCC1OC(=O)CC(O)C(C)C(OC2OC(C)C(O)C(N(C)C)C2O)C(CCOC(C)=O)CC(C)C(=O)C=CC(C)=CC1COC1OC(C)C(O)C(OC)C1OC (centres unmarked) [Compound 29, 20-DH-20-O-Acetyldesmycosin] | -0.60 |
| CCC1OC(=O)CC(O)C(C)C(OC2OC(C)C(OC3CC(C)(O)C(O)C(C)O3)C(N(C)C)C2O)C(CCN=[N+]=[N-])CC(C)C(=O)C=CC(C)=CC1COC1OC(C)C(O)C(OC)C1OC (centres unmarked) [Compound 2, 20-DH-DO-20-Azidotylosin] | 0.00 |
| CCC1OC(=O)CC(O)C(C)C(OC2OC(C)C(OC3CC(C)(O)C(O)C(C)O3)C(N(C)C)C2O)C(CCI)CC(C)C(=O)C=CC(C)=CC1COC1OC(C)C(O)C(O)C1OC (centres unmarked) [Compound 52, 20-DH-DO-20-Iodomacrocin] | 0.30 |
| CCC1OC(=O)CC(O)C(C)C(OC2OC(C)C(O)C(N(C)C)C2O)C(CCOc2ccc(C=O)cc2)CC(C)C(=O)C=CC(C)=CC1COC1OC(C)C(O)C(OC)C1OC (centres unmarked) [Compound 36, 20-DH-20-O-(p-formylphenyl)desmycosin] | -0.60 |
| CCC1OC(=O)CC(O)C(C)C(OC2OC(C)C(OC3CC(C)(O)C(O)C(C)O3)C(N(C)C)C2O)C(CCOc2cc(Cl)cc(Cl)c2)CC(C)C(=O)C=CC(C)=CC1COC1OC(C)C(O)C(OC)C1OC (centres unmarked) [Compound 15, 20-DH-20-O-(3,5-Dichlorophenyl)tylosin] | 0.30 |
| CCC1OC(=O)CC(O)C(C)C(OC2OC(C)C(OC3CC(C)(O)C(O)C(C)O3)C(N(C)C)C2O)C(CCN2C(=O)c3ccccc3C2=O)CC(C)C(=O)C=CC(C)=CC1COC1OC(C)C(O)C(OC)C1OC (centres unmarked) [Compound 1, 20-DH-DO-20-N-Phthalimidotylosin] | 0.00 |

* * *

Let's look at some compounds and their measured MIC.
Tested on: Staphylococcus epidermidis EPI1
Measurement Protocol: MIC, standard agar-dilution assay, Staphylococcus epidermidis EPI1
Assay type: cell-based
Test Conditions: Staphylococcus epidermidis EPI1; agar dilution; read-out: MIC

| Compound | Assay System | Scale Unit | MIC |
| --- | --- | --- | --- |
| CCC1OC(=O)CC(O)C(C)C(OC2OC(C)C(OC3CC(C)(O)C(O)C(C)O3)C(N(C)C)C2O)C(CCSc2nnnn2C)CC(C)C(=O)C=CC(C)=CC1COC1OC(C)C(O)C(OC)C1OC (stereo not shown) | Staphylococcus epidermidis EPI1 | µg/mL | 1 |
| CCC1OC(=O)CC(O)C(C)C(OC2OC(C)C(O)C(N(C)C)C2O)C(CCF)CC(C)C(=O)C=CC(C)=CC1COC1OC(C)C(O)C(OC)C1OC (stereo not shown) | Staphylococcus epidermidis EPI1 | µg/mL | 0.12 |
| CCC1OC(=O)CC(O)C(C)C(OC2OC(C)C(OC3CC(C)(O)C(O)C(C)O3)C(N(C)C)C2O)C(CCSc2ccccc2)CC(C)C(=O)C=CC(C)=CC1COC1OC(C)C(O)C(OC)C1OC (stereo not shown) | Staphylococcus epidermidis EPI1 | µg/mL | 2 |
| CCC1OC(=O)CC(O)C(C)C(OC2OC(C)C(OC3CC(C)(O)C(O)C(C)O3)C(N(C)C)C2O)C(CCOc2ccc(OC)cc2)CC(C)C(=O)C=CC(C)=CC1COC1OC(C)C(O)C(OC)C1OC (stereo not shown) | Staphylococcus epidermidis EPI1 | µg/mL | 2 |

* * *

Tested on: Streptococcus Group D X66
Measurement Protocol: MIC, standard agar-dilution assay, Streptococcus Group D X66
Assay type: cell-based
Let's look at some compounds and their measured MIC.

| Compound | Assay System | Result Comparator | MIC (µg/mL) |
| --- | --- | --- | --- |
| CCC1OC(=O)CC(O)C(C)C(OC2OC(C)C(O)C(N(C)C)C2O)C(CCOc2ccc([N+](=O)[O-])cc2)CC(C)C(=O)C=CC(C)=CC1COC1OC(C)C(O)C(OC)C1OC (stereo not drawn) | Streptococcus Group D X66 | = | 4 |
| CCC1OC(=O)CC(O)C(C)C(OC2OC(C)C(O)C(N(C)C)C2O)C(CC2SCCN2Cc2ccccc2)CC(C)C(=O)C=CC(C)=CC1COC1OC(C)C(O)C(OC)C1OC (stereo not drawn) | Streptococcus Group D X66 | = | 4 |
| CCC1OC(=O)CC(O)C(C)C(OC2OC(C)C(O)C(N(C)C)C2O)C(CC2Nc3ccccc3S2)CC(C)C(=O)C=CC(C)=CC1COC1OC(C)C(O)C(OC)C1OC (stereo not drawn) | Streptococcus Group D X66 | = | 2 |
| CCC1OC(=O)CC(O)C(C)C(OC2OC(C)C(O)C(N(C)C)C2O)C(CCOc2ccc(C(=O)c3ccccc3)cc2)CC(C)C(=O)C=CC(C)=CC1COC1OC(C)C(O)C(OC)C1OC (stereo not drawn) | Streptococcus Group D X66 | = | 0.25 |
| CCOC(=O)NN(CCC1CC(C)C(=O)C=CC(C)=CC(COC2OC(C)C(O)C(OC)C2OC)C(CC)OC(=O)CC(O)C(C)C1OC1OC(C)C(OC2CC(C)(O)C(O)C(C)O2)C(N(C)C)C1O)C(=O)OCC (stereo not drawn) | Streptococcus Group D X66 | > | 128 |
| CCC1OC(=O)CC(O)C(C)C(OC2OC(C)C(OC3CC(C)(O)C(O)C(C)O3)C(N(C)C)C2O)C(CCOc2ccc(C=O)cc2)CC(C)C(=O)C=CC(C)=CC1COC1OC(C)C(O)C(OC)C1OC (stereo not drawn) | Streptococcus Group D X66 | = | 128 |
| CCC1OC(=O)CC(O)C(C)C(OC2OC(C)C(O)C(N(C)C)C2O)C(CCOc2ccc(C=O)cc2)CC(C)C(=O)C=CC(C)=CC1COC1OC(C)C(O)C(OC)C1OC (stereo not drawn) | Streptococcus Group D X66 | = | 4 |
| CCC1OC(=O)CC(O)C(C)C(OC2OC(C)C(O)C(N(C)C)C2O)C(CCF)CC(C)C(=O)C=CC(C)=CC1COC1OC(C)C(O)C(OC)C1OC (stereo not drawn) | Streptococcus Group D X66 | = | 8 |
| CCC1OC(=O)CC(O)C(C)C(OC2OC(C)C(O)C(N(C)C)C2O)C(CCOc2cccc(N(C)C)c2)CC(C)C(=O)C=CC(C)=CC1COC1OC(C)C(O)C(OC)C1OC (stereo not drawn) | Streptococcus Group D X66 | = | 4 |
